Target: UniProtKB P10275
Sequence (P10275 whole entry): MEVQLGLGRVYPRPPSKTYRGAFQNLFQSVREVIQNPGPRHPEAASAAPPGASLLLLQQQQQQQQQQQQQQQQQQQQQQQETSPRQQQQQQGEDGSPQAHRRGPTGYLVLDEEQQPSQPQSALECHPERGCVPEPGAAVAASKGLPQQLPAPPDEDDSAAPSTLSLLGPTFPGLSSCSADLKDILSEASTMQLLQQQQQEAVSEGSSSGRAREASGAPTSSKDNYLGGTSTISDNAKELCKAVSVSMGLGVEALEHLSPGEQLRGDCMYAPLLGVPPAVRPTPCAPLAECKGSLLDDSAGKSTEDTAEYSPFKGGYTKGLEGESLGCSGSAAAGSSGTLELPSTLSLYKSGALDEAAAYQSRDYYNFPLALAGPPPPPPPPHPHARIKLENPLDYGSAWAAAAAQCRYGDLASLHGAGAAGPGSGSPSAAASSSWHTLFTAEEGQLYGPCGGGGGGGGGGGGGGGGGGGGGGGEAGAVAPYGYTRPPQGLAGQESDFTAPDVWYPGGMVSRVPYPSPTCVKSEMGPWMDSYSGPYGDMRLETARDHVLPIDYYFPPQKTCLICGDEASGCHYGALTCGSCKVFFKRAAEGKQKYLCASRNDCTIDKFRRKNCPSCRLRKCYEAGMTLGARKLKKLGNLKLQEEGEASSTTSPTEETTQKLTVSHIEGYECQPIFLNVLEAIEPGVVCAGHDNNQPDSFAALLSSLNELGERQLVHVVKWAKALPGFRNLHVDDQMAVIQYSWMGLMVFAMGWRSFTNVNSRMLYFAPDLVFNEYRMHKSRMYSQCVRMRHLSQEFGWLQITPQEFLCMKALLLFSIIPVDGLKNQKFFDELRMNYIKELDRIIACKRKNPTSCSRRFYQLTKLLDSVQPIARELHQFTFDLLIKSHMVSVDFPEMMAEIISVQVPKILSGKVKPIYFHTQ
Settings: HeLa
Description: Agonist activity at human AR expressed in human HeLa cells co-transfected with MMTV-Luc-Hyg after 48 hrs by transient-luciferase reporter gene assay
QUANTITY KIND: EC5

Examples with answers:
CC1(C)C(=O)N(c2ccc(C#N)c(C(F)(F)F)c2)C(=S)N1c1ccnc(S(N)(=O)=O)c1 | > 10 µM
CC1(C)C(=O)N(c2ccc(C#N)c(Cl)c2)C(=S)N1c1cccc(S(N)(=O)=O)n1 | > 10 µM
CC1(C)C(=O)N(c2ccc(C#N)c(C(F)(F)F)c2)C(=S)N1c1cccc(S(N)(=O)=O)c1 | > 10 µM

Batch request: EC5 per item, same order as input.
1. CC1(C)C(=O)N(c2ccc(C#N)c(Cl)c2)C(=S)N1CCCS(N)(=O)=O
2. CC1(C)NC(=S)N(c2ccc(C#N)c(C(F)(F)F)c2)C1=O

1. > 10 µM
2. 0.001 µM
